// provenance: the supplement of paper PMC10567573

B1: MTMR15 (parent)
chain: FSPDFTLRNTLKSTSEDSLVKQEC

Variants of: B1
Test: protein stability index of a GFP-peptide fusion (GPS, HEK-293T) (PSI 1-6); higher = more stable;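 also: lentivirally expressed fusions sorted by FACS into six bins by GFP to DsRed ratio, PSI derived from sequencing read proportions per bin multiplied by bin number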
Measurement Setup: c terminus: a fixed tail appended

Sequence Record: FSPDFTLRNTLKSTSEDSLVKAEC [Q22A]
protein stability index: 1.56

Sequence Record: FEPDFTLRNTLKSTSEDSLVKQEC [S2E]
protein stability index: 4.8

Sequence Record: FSPDFTLRNTLYSTSEDSLVKQEC [K12Y]
protein stability index: 2.38

Sequence Record: FSPDFTLRNTLKSTSEDILVKQEC [S18I]
protein stability index: 3.61

Sequence Record: FSPDFTLRKTLKSTSEDSLVKQEC [N9K]
protein stability index: 2.11

Sequence Record: FSPDFTLRNTLKSVSEDSLVKQEC [T14V]
protein stability index: 2.43

Sequence Record: FSPSFTLRNTLKSTSEDSLVKQEC [D4S]
protein stability index: 1.9

Sequence Record: FSPDFTLRATLKSTSEDSLVKQEC [N9A]
protein stability index: 1.67

Sequence Record: FSHDFTLRNTLKSTSEDSLVKQEC [P3H]
protein stability index: 3.05

Sequence Record: FSPDPTLRNTLKSTSEDSLVKQEC [F5P]
protein stability index: 3.59

Sequence Record: FSPDFTLRNTLKSTSEDSGVKQEC [L19G]
protein stability index: 2
